- Experimental system: His-tagged CRBN-DDB1 complex (Homo sapiens)
- Experiment summary: Time-Resolved Fluorescence Resonance Energy Transfer (TR-FRET / HTRF) CRBN binding assay, displacement of Cy5-labeled thalidomide
- Recorded conditions: His-CRBN-DDB1, Cy5-thalidomide 8 nM, 1 hour room temperature
pIC50: −log10 of the molar value.
Here the recorded pIC50 is given for each entry.

Answered cases to consult:
CC(C)(C)OC(=O)NCCCCCc1ccc(Oc2cccc3c2C(=O)NC(=O)C3)cc1 ... < 4.00
O=C1NC(=O)[C@@H]2CN(c3ccc4c(c3)CCO4)C[C@H]12 ... < 4.00
Cc1ccc(N2C[C@@H]3C(=O)NC(=O)[C@@H]3C2)cc1 ... 4.00 to 4.52
Cc1cccc(C(=O)N2CCC3(CC2)CC(=O)NC(=O)C3)c1 ... < 4.00
Cn1c(=O)c2c(Br)cccc2n(C)c1=O ... < 4.00
O=C1CC2(CCN(Cc3cccc4cccnc34)CC2)CC(=O)N1 ... < 4.00
O=C1NC(=O)[C@@H]2CN(c3ccc(F)cc3)C[C@H]12 ... < 4.00
O=C1NC(=O)[C@@H]2CN(C(=O)COCc3ccccc3)C[C@H]12 ... < 4.00

input: Look up pIC50: "Cc1ccc(N2CCC3(CC2)CC(=O)NC(=O)C3)cc1"
output: < 4.00

* * *

- Experimental system: His-tagged CRBN-DDB1 complex (Homo sapiens, UniProt Q96SW2)
- Sequence (Q96SW2 whole entry): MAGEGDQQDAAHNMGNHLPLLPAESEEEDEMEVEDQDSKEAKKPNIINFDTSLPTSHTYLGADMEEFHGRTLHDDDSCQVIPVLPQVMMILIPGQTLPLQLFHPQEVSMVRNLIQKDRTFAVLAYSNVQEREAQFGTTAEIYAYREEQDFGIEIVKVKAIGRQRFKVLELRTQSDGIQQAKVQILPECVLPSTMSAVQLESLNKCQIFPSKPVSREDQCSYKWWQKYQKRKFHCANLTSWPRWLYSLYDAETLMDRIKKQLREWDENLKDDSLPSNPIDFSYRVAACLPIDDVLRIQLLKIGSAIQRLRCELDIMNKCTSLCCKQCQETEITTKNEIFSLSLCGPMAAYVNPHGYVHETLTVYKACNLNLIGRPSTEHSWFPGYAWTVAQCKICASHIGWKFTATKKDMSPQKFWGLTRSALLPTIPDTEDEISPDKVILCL
- Sequence (Q16531 whole entry partner): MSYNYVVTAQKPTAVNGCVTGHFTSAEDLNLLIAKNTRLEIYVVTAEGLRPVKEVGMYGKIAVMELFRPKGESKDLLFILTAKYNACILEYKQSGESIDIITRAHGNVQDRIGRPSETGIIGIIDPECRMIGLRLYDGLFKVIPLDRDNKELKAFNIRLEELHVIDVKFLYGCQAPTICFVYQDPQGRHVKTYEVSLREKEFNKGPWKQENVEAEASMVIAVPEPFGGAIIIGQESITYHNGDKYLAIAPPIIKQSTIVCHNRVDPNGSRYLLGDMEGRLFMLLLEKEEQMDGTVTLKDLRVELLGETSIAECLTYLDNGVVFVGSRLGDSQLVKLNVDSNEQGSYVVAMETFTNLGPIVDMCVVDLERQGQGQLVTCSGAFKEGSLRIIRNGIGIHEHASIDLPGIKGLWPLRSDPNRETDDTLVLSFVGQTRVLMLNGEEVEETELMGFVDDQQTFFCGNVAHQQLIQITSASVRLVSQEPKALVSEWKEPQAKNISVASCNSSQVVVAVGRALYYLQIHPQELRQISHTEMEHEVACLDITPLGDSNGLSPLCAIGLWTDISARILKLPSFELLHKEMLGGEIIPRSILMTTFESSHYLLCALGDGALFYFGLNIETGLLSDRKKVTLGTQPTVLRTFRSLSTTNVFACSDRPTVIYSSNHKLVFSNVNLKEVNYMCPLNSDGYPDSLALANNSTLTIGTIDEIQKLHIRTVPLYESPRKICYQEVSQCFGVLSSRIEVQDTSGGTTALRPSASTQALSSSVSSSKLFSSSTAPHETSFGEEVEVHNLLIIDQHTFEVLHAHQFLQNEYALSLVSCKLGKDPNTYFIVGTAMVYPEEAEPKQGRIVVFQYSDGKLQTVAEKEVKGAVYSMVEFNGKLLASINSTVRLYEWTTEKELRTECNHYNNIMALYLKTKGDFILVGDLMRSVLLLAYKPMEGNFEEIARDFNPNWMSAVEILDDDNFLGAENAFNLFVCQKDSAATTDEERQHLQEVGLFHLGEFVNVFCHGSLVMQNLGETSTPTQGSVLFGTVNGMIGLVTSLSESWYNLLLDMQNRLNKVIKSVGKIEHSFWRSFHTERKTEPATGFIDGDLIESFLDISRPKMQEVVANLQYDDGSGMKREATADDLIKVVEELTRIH
- Experiment summary: Time-Resolved Fluorescence Resonance Energy Transfer (TR-FRET / HTRF) CRBN binding assay, displacement of Cy5-labeled thalidomide
- Recorded conditions: His-CRBN-DDB1, Cy5-thalidomide 8 nM, 1 hour room temperature
Endpoint label: IC50

input: Recall the recorded IC50 for "CC(=O)NCc1cccc(Oc2cccc3c2C(=O)NC(=O)C3)c1" with His-tagged CRBN-DDB1 complex (Homo sapiens, UniProt Q96SW2) and state it.
output: 30 to 100 µM

input: Recall the recorded IC50 for "NC(=O)c1ccc(N2C[C@@H]3C(=O)NC(=O)[C@@H]3C2)cc1" with His-tagged CRBN-DDB1 complex (Homo sapiens, UniProt Q96SW2) and state it.
output: > 100 µM

* * *

Here the recorded pIC50 is given for each entry.
- Experimental system: His-tagged CRBN-DDB1 complex (Homo sapiens, UniProt Q96SW2)
- Experiment summary: Time-Resolved Fluorescence Resonance Energy Transfer (TR-FRET / HTRF) CRBN binding assay, displacement of Cy5-labeled thalidomide
- Recorded conditions: His-CRBN-DDB1, Cy5-thalidomide 8 nM, 1 hour room temperature
pIC50: −log10 of the molar value.

CC(=O)Nc1ccc2c(c1)C(=O)NC2=O ... < 4.00
CC(C)(C)OC(=O)NCCCCCCCC#Cc1ccc(Oc2cccc3c2C(=O)NC(=O)C3=O)cc1 ... > 5.00
O=C1NC(=O)[C@@H]2CN(c3cccc4cnccc34)C[C@H]12 ... < 4.00
O=C1CC2(CCN(c3ccc(O)cc3)CC2)CC(=O)N1 ... < 4.00

input: Recall the recorded pIC50 for "O=C1Cc2cccc(Oc3ccccc3)c2C(=O)N1" with His-tagged CRBN-DDB1 complex (Homo sapiens, UniProt Q96SW2) and state it.
output: > 5.00

input: Recall the recorded pIC50 for "O=C1NC(=O)[C@@H]2CN(C3Cc4ccccc4C3)C[C@H]12" with His-tagged CRBN-DDB1 complex (Homo sapiens, UniProt Q96SW2) and state it.
output: < 4.00

input: Recall the recorded pIC50 for "CS(=O)(=O)c1cccc(N2C[C@@H]3C(=O)NC(=O)[C@@H]3C2)c1" with His-tagged CRBN-DDB1 complex (Homo sapiens, UniProt Q96SW2) and state it.
output: < 4.00

input: Recall the recorded pIC50 for "CC(C)(C)OC(=O)NCCCc1cccc(Oc2cccc3c2C(=O)NC(=O)C3)c1" with His-tagged CRBN-DDB1 complex (Homo sapiens, UniProt Q96SW2) and state it.
output: 4.52 to 5.00

input: Recall the recorded pIC50 for "O=C1NC(=O)[C@@H]2CN(c3ccc4c(c3)OCO4)C[C@H]12" with His-tagged CRBN-DDB1 complex (Homo sapiens, UniProt Q96SW2) and state it.
output: < 4.00

FYI, the data here is from patent US20220281831A1.
